test: 6 patient PK study, 50 mg SD, powder in capsule (disclosed method); format: in vivo, patients; conditions: human, plasma, oral, 50 mg, disclosed method; 6 patients; 50 mg SD; read-out: AUC.0-24, GeoMean
Measure: AUC (ng·h/mL)

{"Compound": "Cc1ccc(Nc2nccc(N(C)c3ccc4c(C)n(C)nc4c3)n2)cc1S(N)(=O)=O [pazopanib]", "Recorded Measurement": 59800}

###

test: 6 patient PK study, 50 mg SD, powder in capsule (disclosed method); format: in vivo, patients; conditions: human, plasma, oral, 50 mg, disclosed method; 6 patients; 50 mg SD; read-out: Cmax, GeoMean

{"Smiles": "Cc1ccc(Nc2nccc(N(C)c3ccc4c(C)n(C)nc4c3)n2)cc1S(N)(=O)=O", "Endpoint Unit": "ng/mL", "Cmax": 3820}
